These entries and their values trace back to patent US11767323B2.

target: catalytic domain (JH1, amino acids 808-1132) of human JAK2 (Homo sapiens (Human)); assay: JAK2 HTRF Enzyme Activity Assay; conditions: JAK2 0.015 nM, ATP (30 μM or 1 mM), 60 minutes at 25° C.
Sequence (O60674 808-1132): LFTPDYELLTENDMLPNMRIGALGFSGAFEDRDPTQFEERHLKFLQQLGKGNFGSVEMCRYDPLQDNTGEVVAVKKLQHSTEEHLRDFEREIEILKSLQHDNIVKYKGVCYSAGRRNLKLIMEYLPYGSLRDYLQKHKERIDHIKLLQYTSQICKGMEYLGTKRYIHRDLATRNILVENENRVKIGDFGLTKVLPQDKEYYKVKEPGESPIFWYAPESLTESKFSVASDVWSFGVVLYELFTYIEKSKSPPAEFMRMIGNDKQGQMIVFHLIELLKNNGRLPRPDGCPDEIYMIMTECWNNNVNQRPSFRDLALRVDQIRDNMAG
In this section, each of the compounds is paired with its reported IC50.
result_type: IC50

{"structure_string": "CCn1c(=O)c(-c2ccc(C(=O)O)cc2)cc2c3cc(-c4ccc(CN5CCC(S(C)(=O)=O)CC5)cc4)[nH]c3ncc21", "result_type": "IC50", "endpoint_result": "1 to 10 µM"}
{"structure_string": "Cc1ccc(-c2c(C)c3c4cc(-c5ccc(CN6CCC(S(C)(=O)=O)CC6)cc5)[nH]c4ncc3n(C)c2=O)cc1", "result_type": "IC50", "endpoint_result": "≤ 0.1 µM"}
{"structure_string": "CS(=O)(=O)C1CCN(Cc2ccc(-c3cc4c(ncc5[nH]c(=O)c(-c6ccc(C(=O)O)cc6)cc54)[nH]3)cc2)CC1", "result_type": "IC50", "endpoint_result": "> 10 µM"}

====

biological target: catalytic domain (JH1, amino acids 826-1132) of human JAK2 (Homo sapiens (Human), UniProt O60674); test: JAK2 LanthaScreen JH1 Binding Assay; settings: JAK2 JH1 1.5 nM, 50 nM tracer, 2 hours at 25° C.; read-out: JH1 BIND IC50
Sequence (O60674 826-1132): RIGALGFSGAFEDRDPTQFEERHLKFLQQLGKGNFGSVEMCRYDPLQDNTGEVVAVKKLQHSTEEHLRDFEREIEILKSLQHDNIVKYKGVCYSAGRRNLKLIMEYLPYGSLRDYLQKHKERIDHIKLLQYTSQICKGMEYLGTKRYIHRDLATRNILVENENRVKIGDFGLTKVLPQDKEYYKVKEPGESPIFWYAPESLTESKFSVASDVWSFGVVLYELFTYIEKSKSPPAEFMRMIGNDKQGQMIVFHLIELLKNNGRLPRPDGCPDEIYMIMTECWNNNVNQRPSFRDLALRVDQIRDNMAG
pIC50: −log10 of the molar value.

{"compound": "CS(=O)(=O)C1CCN(Cc2ccc(-c3cc4c(ncc5[nH]c(=O)c(-c6nnn[nH]6)cc54)[nH]3)cc2)CC1", "pIC50": "< 5.00"}
{"compound": "COC1CCC(c2c(-c3cc(C)no3)c(=O)n(C)c3cnc4[nH]c(-c5cnn(C)c5)cc4c23)CC1 (stereo not shown)", "pIC50": "6.30 to 7.00"}
{"compound": "Cc1cc(-c2c(C3CCOCC3)c3c4cc(-c5ccc(CN6CCC(S(C)(=O)=O)CC6)cc5)[nH]c4ncc3n(C)c2=O)on1", "pIC50": "6.30 to 7.00"}
{"compound": "Cc1ccc(-c2c(C)c3c4cc(-c5ccc(CN6CCC(S(C)(=O)=O)CC6)cc5)[nH]c4ncc3n(C)c2=O)cc1", "pIC50": "≥ 7.00"}

====

target: pseudo-kinase domain (JH2, amino-acids 536-812) of human V617F mutant JAK2 (Homo sapiens (Human), UniProt O60674, F794H/V617F/W659A/W777A); assay: JAK2 LanthaScreen JH2-V617F Binding Assay; conditions: JAK2 JH2-V617F 0.26 nM, 50 nM tracer, 1 hour at 25° C.; read-out: JH2 BIND V617F IC50
Sequence (O60674 536-812 V617F/W659A/W777A/F794H): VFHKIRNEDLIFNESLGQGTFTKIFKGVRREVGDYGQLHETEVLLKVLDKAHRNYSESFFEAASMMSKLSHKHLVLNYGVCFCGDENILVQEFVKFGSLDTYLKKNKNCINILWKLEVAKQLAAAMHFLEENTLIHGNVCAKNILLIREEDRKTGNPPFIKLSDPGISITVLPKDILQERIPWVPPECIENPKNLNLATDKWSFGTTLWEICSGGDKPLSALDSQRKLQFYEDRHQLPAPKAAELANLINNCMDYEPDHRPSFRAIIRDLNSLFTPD
pIC50: −log10 of the molar value.
result_type: pIC50

{"molecule": "Cc1c(-c2ccc3c(c2)OCCO3)c(=O)[nH]c2cnc3[nH]c(-c4ccc(CN5CCC(S(C)(=O)=O)CC5)cc4)cc3c12 [Example 19]", "endpoint_result": "5.00 to 6.00"}
{"molecule": "Cn1c(=O)c(-c2ccc(C(=O)O)cc2)cc2c3cc(-c4ccc(CN5CCC(S(C)(=O)=O)CC5)cc4)[nH]c3ncc21 [Example 14]", "endpoint_result": "≥ 7.00"}
{"molecule": "CN(C)C(=O)c1ccc(-c2c(-c3cnn(C)c3)[nH]c3ncc4c(cc(NC5CCC(CC#N)CC5)c(=O)n4C)c23)cc1 (centres unmarked) [Example 38]", "endpoint_result": "≥ 7.00"}
{"molecule": "Cc1cc(-c2c(-c3ccc(C(=O)NCCO)cc3)c3c4cc(-c5cnn(C)c5)[nH]c4ncc3n(C)c2=O)on1 [Example 25]", "endpoint_result": "≥ 7.00"}
{"molecule": "Cn1nccc1-c1cc2c(cnc3[nH]c(-c4ccc(CN5CCC(S(C)(=O)=O)CC5)cc4)cc32)[nH]c1=O [Example 4]", "endpoint_result": "5.00 to 6.00"}
{"molecule": "Cc1ccncc1-c1cc2c3c(-c4ccc(C(=O)N(C)C)cc4)c(-c4cnn(C)c4)[nH]c3ncc2n(C)c1=O [Example 36]", "endpoint_result": "≥ 7.00"}
{"molecule": "Cc1c(-c2ccc(C(=O)O)cc2)c(=O)[nH]c2cnc3[nH]c(-c4ccc(CN5CCC(S(C)(=O)=O)CC5)cc4)cc3c12 [Example 6]", "endpoint_result": "≥ 7.00"}
{"molecule": "Cc1c(-c2ccc(Cl)cc2)c(=O)n(C)c2cnc3[nH]c(-c4ccc(CN5CCC(S(C)(=O)=O)CC5)cc4)cc3c12 [Example 10]", "endpoint_result": "≥ 7.00"}
{"molecule": "Cc1cc(-c2c(-c3ccc(NC4CCOCC4)cc3)c3c4cc(-c5cnn(C)c5)[nH]c4ncc3n(C)c2=O)on1 [Example 30]", "endpoint_result": "≥ 7.00"}
{"molecule": "CN(C)C(=O)c1ccc(-c2c(-c3cnn(C)c3)[nH]c3ncc4c(cc(Nc5cccc(-c6nnn[nH]6)c5)c(=O)n4C)c23)cc1 [Example 34]", "endpoint_result": "≥ 7.00"}
{"molecule": "CC(=O)N1CC[C@H](c2cc3c4c(-c5ccccc5)c(-c5ccc(CN6CCC(S(C)(=O)=O)CC6)cc5)[nH]c4ncc3n(C)c2=O)C1 [Example 37]", "endpoint_result": "≥ 7.00"}
{"molecule": "Cc1cc(-c2c(-c3ccc(-c4cnn(C)c4CO)cc3)c3c4cc(-c5cnn(C)c5)[nH]c4ncc3n(C)c2=O)on1 [Example 32]", "endpoint_result": "≥ 7.00"}
{"molecule": "Cc1c(-c2ccc([N+](=O)[O-])cc2)c(=O)[nH]c2cnc3[nH]c(-c4ccc(CN5CCC(S(C)(=O)=O)CC5)cc4)cc3c12 [Example 18]", "endpoint_result": "5.00 to 6.00"}
{"molecule": "CCn1c(=O)c(-c2ccc(C(=O)O)cc2)cc2c3cc(-c4ccc(CN5CCC(S(C)(=O)=O)CC5)cc4)[nH]c3ncc21 [Example 15]", "endpoint_result": "5.00 to 6.00"}
{"molecule": "CCc1c(-c2ccc(C(=O)O)cc2)c(=O)n(C)c2cnc3[nH]c(-c4ccc(CN5CCC(S(C)(=O)=O)CC5)cc4)cc3c12 [Example 16]", "endpoint_result": "≥ 7.00"}
{"molecule": "Cc1ccc(-c2c(C)c3c4cc(-c5ccc(CN6CCC(S(C)(=O)=O)CC6)cc5)[nH]c4ncc3n(C)c2=O)cc1 [Example 9]", "endpoint_result": "≥ 7.00"}
{"molecule": "Cc1cc(-c2c(-c3ccc(CNC4CCCOC4)cc3)c3c4cc(-c5cnn(C)c5)[nH]c4ncc3n(C)c2=O)on1 (centres unmarked) [Example 28]", "endpoint_result": "≥ 7.00"}
{"molecule": "CN(C)C(=O)c1ccc(-c2c(-c3cnn(C)c3)[nH]c3ncc4c(cc(Nc5ccc(Cc6nnn[nH]6)cc5)c(=O)n4C)c23)cc1 [Example 35]", "endpoint_result": "≥ 7.00"}
{"molecule": "CN(C)C(=O)c1cc2c3c(-c4ccc5c(cnn5C)c4)c(-c4cnn(C)c4)[nH]c3ncc2n(C)c1=O [Example 43]", "endpoint_result": "≥ 7.00"}
{"molecule": "CS(=O)(=O)C1CCN(Cc2ccc(-c3cc4c(ncc5[nH]c(=O)c(-c6ccccc6)cc54)[nH]3)cc2)CC1 [Example 1]", "endpoint_result": "5.00 to 6.00"}
{"molecule": "COC1CCC(c2cc(=O)n(C)c3cnc4[nH]c(-c5cnn(C)c5)cc4c23)CC1 (centres unmarked) [Example 24]", "endpoint_result": "≥ 7.00"}
{"molecule": "CS(=O)(=O)C1CCN(Cc2ccc(-c3cc4c(ncc5[nH]c(=O)c(C#N)cc54)[nH]3)cc2)CC1 [Example 3]", "endpoint_result": "5.00 to 6.00"}
{"molecule": "COC1CCC(c2c(-c3cc(C)no3)c(=O)n(C)c3cnc4[nH]c(-c5cnn(C)c5)cc4c23)CC1 (centres unmarked) [Example 22]", "endpoint_result": "≥ 7.00"}
